experiment: NCI Yeast Anticancer Drug Screen. Data for the mec2-1 strain (AID 157); settings: S. cerevisiae mec2-1 strain, at 50.0 µM, hits give high values
Compounds without any hit were thinned out: in the full panel of roughly 79,000, 15% have a hit. The source made the active and inactive calls. Cut-off read from the data, not from the text of the source: active = growth inhibition above about 70%; inactive = the rest.
assay readout: growth inhibition

COc1cccc(-n2cnc3c(=S)nc[nH]c32)c1 | -9.3% (inactive)
CCC(SC(CC)(CC(C)C)C(N)=O)C(N)=O (centres undefined) | -5.65% (inactive)
COc1ccc(C2ON(c3ccccn3)CC=C2C)cc1 (centres undefined) | -9.25% (inactive)

Ask | Give the measured growth inhibition of Cc1[nH]c2ccc([N+](=O)[O-])cc2c1C .
Reply | -5.15% (inactive)

###

test: NCI Yeast Anticancer Drug Screen. Data for the bub3 strain (AID 167); conditions: S. cerevisiae bub3 mutant strain, at 50.0 µM, hits give high values
About 79,000 compounds went through this panel and 15% of them were active in at least one assay; those are over-represented in the sample as a whole. Where a SMILES comes first, the peptide text is derived from it. Bridges are numbered along the chain shown (N, C = ends).
assay readout: growth inhibition (%)
Give bare numbers, in %.

COc1ccc(-n2cnc3[nH]ncc3c2=O)cc1 | 12.3
C=CCC(=O)OCc1cc2c(cc1Br)OCO2 | 54.5
O=[N+]([O-])c1ccc(N=Cc2ccccc2O)cc1 | 8.05

Give one value of growth inhibition per listed compound.
1. CCC(C(=O)O)C(=O)O.[NH-]CC1CCCC[N-]1.[Pt+2]
2. CCOC(=O)C(NNc1ccccc1)C(=O)C(F)(F)F (centres undefined)
3. COc1ccccc1NC(=O)CC(=O)N1N=C(C)C(N=Nc2ccc(S(N)(=O)=O)cc2)C1=O (centres undefined)
4. CN(C)CCCC1(O)c2ccccc2Sc2cc(Cl)ccc21 (centres undefined)
5. C/C(=N/NC(=O)c1ccccc1O)c1ccc(/C(C)=N\NC(=O)c2ccccc2O)c2nc3cc(C)c(C)cc3nc12
6. Cc1ccc(N(CN2C(=O)CCC2=O)CS(=O)(=O)c2ccc(Cl)cc2)cc1

Reply |
1. -39.5
2. 1.35
3. 11
4. 12.7
5. 6.7
6. -3.4

Give one value of growth inhibition per listed compound.
1. O=C(C[n+]1cccc2ccccc21)c1ccc(F)cc1
2. Cc1c2cnccc2c(C)c2c1c1ccccc1n2CCCCCC#N
3. CN(C)CCNC(=O)CN

Reply |
1: 10.2; 2: 98.5; 3: 5.9

Give one value of growth inhibition per listed compound.
1. O=c1[nH]c2ccc(Br)cc2cc1Br
2. CC(=O)Nc1ccc([N+](=O)[O-])cc1

Reply |
[2.45, 14.7]

Give one value of growth inhibition per listed compound.
1. CCOC(=O)C1CSSCC(N)C(=O)N1 (stereo not drawn) (H-Cys-Cys-OEt; disulfide 1-2; configuration not given here)
2. COc1ccc(-c2coc3c4c(c(CC=C(C)C)c(O)c3c2=O)OC(C)(C)C=C4)cc1OC
3. O=C(NC1c2ccccc2CCc2ccccc21)C(F)(F)F
4. O=c1c2c(oc3c(Cl)cc(Cl)cc13)CCCC2
5. O=C(N/N=C/c1ccc(Cl)cc1Cl)C(O)(c1ccccc1)c1ccccc1
6. Cc1ccc(NC(=O)c2ccc(Cl)cc2)cc1Cl
7. COC(=O)c1ccc(NCc2cc(O)ccc2O)cc1O

Reply |
1: -11.6; 2: 4.1; 3: 15.3; 4: 5.8; 5: 10.7; 6: 13.8; 7: 84.8

Attribution: PubChem BioAssay (NCI)
